Every entry's value here was drawn from PubChem BioAssay AID1963863.

System: 931267-113-T-J1-PDC KRAS spheroid with HUVEC/MSC, viability;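 further: compound exposure lasted 7 days before the readout; 100% = DMSO vehicle control viability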
Assay: Anticancer human tumor 931267-113-T-J1-PDC patient-derived colon adenocarcinoma cell line growth inhibition [KRAS2]
Settings: second compound 3.16 µM; first compound 0.0316 µM; active compounds read low

COMPOUND: COc1cc2nccc(Oc3ccc(NC(=O)C4(C(=O)Nc5ccc(F)cc5)CC4)cc3)c2cc1OC + CC1OCC2(CCN(c3cnc(Sc4ccnc(N)c4Cl)c(N)n3)CC2)C1N
viability, T/C, %: 78.6
//
COMPOUND: CC(C)n1nc(-c2ccc3oc(N)nc3c2)c2c(N)ncnc21 + CNCc1ccccc1-c1csc(C(C)Nc2nc(C)nc3cc(OC)c(OC)cc23)c1
viability, T/C, %: 0.07
//
COMPOUND: CC1COCCN1c1cc(-c2ccnn2C)c2ccnc(-c3ccn[nH]3)c2n1 (stereo not drawn) + COc1cc2nc(C)nc(NC(C)c3cc(N)cc(C(F)(F)F)c3)c2cc1OC1CCOC1
viability, T/C, %: 51.6
